Every entry's value here was drawn from patent US8765809B2.

Tested on: auricle of hairless mouse
Test: Measurement of external blood circulation enhancing action: vasodilatory effect (red spots) after application to the ear
Type: in vivo, hairless mouse (HR-1, female)
Conditions: application of 5 wt % in liquid paraffin
Metric Name: weak red spots were observed even after lapse of

Molecule: COc1cc(COC(=O)CCCCCC(C)C)ccc1O [nordihydrocapsiate, reference compound]
Recorded Measurement: lapse of 90 min
--
Molecule: COc1cc(COC(=O)CCCC/C=C/C(C)C)ccc1O [capsiate, reference compound]
Recorded Measurement: lapse of 90 min
--
Molecule: COc1cc(COC(=O)CCCCCCC(C)C)ccc1O [dihydrocapsiate, reference compound]
Recorded Measurement: lapse of 90 min

----------
Recorded recovery at 30 min values for a group of compounds are listed next.
Experiment: Stability of compound: recovery rate (isolation yield) after contact with silica gel (PTLC)
Format: physicochemical
Details: PTLC, silica gel stirred with ethyl acetate 30 min; read-out: isolation yield (recovery rate) after PTLC, taken as stability upon contact with silica gel
// note: answer is a bare numeric in %

Compound: CCCCCCCCCC(=O)OCc1ccc(O)c(OC)c1 [vanillyl decanoate, reference compound]
Readout Units: %
recovery at 30 min: 43.1

Now consider the entry below.
Q) Reported recovery at 30 min for COc1cc(CCOC(=O)CCCCCCC(C)C)ccc1O [compound I, homovanillyl 8-methylnonanoate] : what is it?
A) 93.2

----------
Test system: auricle of hairless mouse
Experiment: Measurement of external blood circulation enhancing action: vasodilatory effect (red spots) after application to the ear
Assay type: in vivo, hairless mouse (HR-1, female)
Parameters: key: O: clear red spots is confirmed; Δ: weak red spots is confirmed; x: no development of red spots
Settings: 5 wt % (liquid paraffin) as printed, second column of Table 2
Metric Name: Vasodilatory effect for hairless mouse (red spots)

The examples below pair each entry with its known result.
Molecule: COc1cc(CCC(=O)OCCCCC(C)C)ccc1O [compound L-3]
Recorded Measurement: Δ
//
Molecule: COc1cc(CCCOC(=O)CCCCCC(C)C)ccc1O [compound J-1]
Recorded Measurement: x
//
Molecule: COc1cc(CCC(=O)OCCCCCCC(C)C)ccc1O [compound L-1]
Recorded Measurement: Δ
//
Molecule: COc1cc(CCCOC(=O)CCCC(C)C)ccc1O [compound J-3]
Recorded Measurement: x
//
Molecule: COc1cc(CC(=O)OCCCCCC(C)C)ccc1O [compound K-3, 6-methylheptyl homovanillate]
Recorded Measurement: ∘
//
Molecule: CC[C@H](C)CCCCCOC(=O)Cc1ccc(O)c(OC)c1 [compound K-2, (S)-(+)-6-methyloctyl homovanillate]
Recorded Measurement: ∘
//
Molecule: COc1cc(COC(=O)CCCCCC(C)C)ccc1O [nordihydrocapsiate, reference compound]
Recorded Measurement: Δ
//
Molecule: COc1cc(CNC(=O)CCCC/C=C/C(C)C)ccc1O [capsaicin, reference compound]
Recorded Measurement: ∘

Q) Reported Vasodilatory effect for hairless mouse (red spots) for COc1cc(CCCOC(=O)CCCCC(C)C)ccc1O [compound J-2] : what is it?
A) x

----------
System: auricle of hairless mouse
Experiment: Measurement of external blood circulation enhancing action: vasodilatory effect (red spots) after application to the ear
Assay type: in vivo, hairless mouse (HR-1, female)
Settings: 0.05 wt % (ethanol)
Metric Name: Vasodilatory effect for hairless mouse (red spots)

Compound: CC[C@H](C)CCCCCOC(=O)Cc1ccc(O)c(OC)c1 [compound K-2, (S)-(+)-6-methyloctyl homovanillate]
Recorded Measurement: ∘
--
Compound: COc1cc(CNC(=O)CCCC/C=C/C(C)C)ccc1O [capsaicin, reference compound]
Recorded Measurement: ∘
--
Compound: COc1cc(CC(=O)OCCCCCCC(C)C)ccc1O [compound K-1, 7-methyloctyl homovanillate]
Recorded Measurement: ∘
--
Compound: COc1cc(CC(=O)OCCCCCC(C)C)ccc1O [compound K-3, 6-methylheptyl homovanillate]
Recorded Measurement: ∘

----------
Test system: auricle of hairless mouse
Assay: Measurement of external blood circulation enhancing action: vasodilatory effect (red spots) after application to the ear
Format: in vivo, hairless mouse (HR-1, female)
Details: 5 wt % (liquid paraffin) as printed, second column of Table 2
Metric Name: Vasodilatory effect for hairless mouse (red spots)

The examples below pair each entry with its known result.
Compound: COc1cc(CC(=O)OCCCCCCC(C)C)ccc1O [compound K-1, 7-methyloctyl homovanillate]
Recorded Measurement: ∘
--
Compound: CC[C@H](C)CCCCCOC(=O)CCc1ccc(O)c(OC)c1
Recorded Measurement: ∘
--
Compound: COc1cc(CCCOC(=O)CCC(C)C)ccc1O
Recorded Measurement: x
--
Compound: COc1cc(COC(=O)CCCCCCC(C)C)ccc1O [dihydrocapsiate, reference compound]
Recorded Measurement: Δ
--
Compound: COc1cc(CCC(=O)OCCCCCC(C)C)ccc1O
Recorded Measurement: Δ

Q) Form entry - test system: auricle of hairless mouse; read-out: Vasodilatory effect for hairless mouse (red spots); compound: CCCCCC(=O)OCCCc1ccc(O)c(OC)c1
A) x

Q) Form entry - test system: auricle of hairless mouse; read-out: Vasodilatory effect for hairless mouse (red spots); compound: COc1cc(COC(=O)CCCC/C=C/C(C)C)ccc1O [capsiate, reference compound]
A) Δ
